The next entries give measured Ki for 5-hydroxytryptamine receptor 1A (Homo sapiens, UniProt P08908).
Report only the number, with the unit nM understood.

Example cases with answers are listed next.
*Q* Report Ki from 5-hydroxytryptamine receptor 1A (Homo sapiens, UniProt P08908) testing of O=C(CCCCCN1CCN(c2ccccc2[N+](=O)[O-])CC1)NC1CCCc2ccccc21 (configuration not stated)
*A* 183

*Q* Report Ki from 5-hydroxytryptamine receptor 1A (Homo sapiens, UniProt P08908) testing of O=C(CCCCCN1CCN(c2ccccc2Cl)CC1)NC1CCCc2ccccc21 (configuration not stated)
*A* 96

*Q* Report Ki from 5-hydroxytryptamine receptor 1A (Homo sapiens, UniProt P08908) testing of O=C(CCCCCN1CCN(c2ccccc2)CC1)NC1CCCc2ccccc21 (configuration not stated)
*A* 128

*Q* Report Ki from 5-hydroxytryptamine receptor 1A (Homo sapiens, UniProt P08908) testing of COc1ccccc1N1CCN(CCCCCC(=O)NC2CCCc3ccccc32)CC1 (configuration not stated)
*A* 8.6

*Q* Report Ki from 5-hydroxytryptamine receptor 1A (Homo sapiens, UniProt P08908) testing of CC(=O)c1ccccc1N1CCN(CCCCCC(=O)NC2CCCc3ccccc32)CC1 (configuration not stated)
*A* 3.85

*Q* Report Ki from 5-hydroxytryptamine receptor 1A (Homo sapiens, UniProt P08908) testing of CS(=O)(=O)c1ccccc1N1CCN(CCCCCC(=O)NC2CCCc3ccccc32)CC1 (configuration not stated)
*A* 3120

Okay, now this compound:
*Q* Report Ki from 5-hydroxytryptamine receptor 1A (Homo sapiens, UniProt P08908) testing of Cc1ccccc1N1CCN(CCCCCC(=O)NC2CCCc3ccccc32)CC1 (configuration not stated)
*A* 279
